Tested on: SF-295
Experiment: NCI tumour cell line growth inhibition, 48 h
Active and inactive are the calls of the source. Rule as the data show it: active = GI50 up to about 1.1 µM and inactive = higher.
Parameter call: string, one of active, inactive

Worked examples follow.
CCC(C)(C)c1ccc(Oc2cccc(C(=O)O)c2)cc1; inactive
CC1CCC2(OC1)OC1CC3C4CC=C5CC(OC6OC(CO)C(OC7OC(C)C(OC8OC(C)C(O)C(O)C8O)C(O)C7O)C(O)C6OC6OC(C)C(O)C(O)C6O)CCC5(C)C4CCC3(C)C1C2C (configuration not stated); active
O=C1CCCC2COc3ccc(O)c1c32 (configuration not stated); inactive
O=S(=O)(O)c1cc(S(=O)(=O)O)c2cc(/N=N/c3ccc(/N=N/c4ccc(/C=C/c5ccc(/N=[N+](/[O-])c6ccc(/C=C/c7ccc(/N=N/c8ccc(/N=N/c9ccc%10cc(S(=O)(=O)O)cc(S(=O)(=O)O)c%10c9)cc8)cc7S(=O)(=O)O)c(S(=O)(=O)O)c6)cc5S(=O)(=O)O)c(S(=O)(=O)O)c4)cc3)ccc2c1; inactive
COC(=O)NC1C(C)OC(OC2C/C=C(/C)C3C=CC4C(OC5CC(OC6CC(O)C(OC7CC(O)C(OC)C(C)O7)C(C)O6)C(O)C(C)O5)C(C)CC(C)C4C3(C)C(=O)C3=C(O)C4(CC(C)C(CO)=CC4/C=C\2C)OC3=O)CC1(C)[N+](=O)[O-] (configuration not stated); inactive

### Prompt Short answer needed: outcome of this test for Nc1ccc(S(=O)(=O)c2ccc(/N=[N+](\[O-])c3ccc(S(=O)(=O)c4ccc(N)cc4)cc3)cc2)cc1 ?
### Response inactive

### Prompt Kindly provide the recorded test outcome for the following compound: N#Cc1c(N)oc(-c2cccc([N+](=O)[O-])c2)c1C#N
### Response inactive

### Prompt Could you kindly confirm the outcome this assay logged for COc1cc(C2S/C(=C/c3ccccc3)C(=O)N2c2ccc(NC(C)=O)cc2)cc(OC)c1OC (configuration not stated) ?
### Response inactive

### Prompt // outcome(item) with item = CC(C)C(NC(=O)Oc1ccccc1)C(=O)NC1c2c(Br)sc(Br)c2C(=O)C1O (configuration not stated)
### Response inactive

### Prompt Lab log entry: CCOC(=O)CCC(NC(=O)c1ccc(Nc2cnc3ccc(C(F)(F)F)cc3n2)cc1)C(=O)OCC (configuration not stated) — outcome as called in the assay?
### Response inactive

### Prompt Record request — test call for C=C(C)[C@H]1C[C@@H]2O[C@@](O)(/C(C)=C\C(=O)/C=C(/C)C[C@H]3OC(=O)[C@@]24O[C@H]34)[C@@H]1O
### Response inactive

### Prompt Check the results log: what was the call for O=c1[nH]c2cc([N+](=O)[O-])ccc2nc1/C(=N\NO)C(O)c1ccc([N+](=O)[O-])cc1 (configuration not stated) ?
### Response inactive

### Prompt // outcome(item) with item = CC1=C(/C=C/C(=O)O)C(C)(C)CCC1
### Response inactive

### Prompt Status in this test for O=C1c2cc3c(cc2NC(c2ccccc2F)C1O)OCO3 (configuration not stated) ?
### Response inactive

### Prompt Just curious, what result did CC(=O)OC1CCC2(C)C(=CCC3C2CCC2(C)C(C(C)C(=O)O)CCC32)C1 (configuration not stated) get here?
### Response inactive

### Prompt // outcome(item) with item = CC(=O)N(CC(=O)C(=O)NNc1ccoc1)c1ccc(Cl)cc1
### Response inactive

### Prompt I would be grateful if you could indicate the recorded call for COc1cc(CNc2nc3ccccc3nc2-c2cccs2)cc(OC)c1OC .
### Response inactive
